These entries and their values trace back to PubChem BioAssay (NCI).

- Tested on: U251 CNS
- test: NCI-60 one-dose screen, 48 h
- condition: 10 µM unless noted
About 83,000 compounds went through this panel and 20% of them were active in at least one assay; those are over-represented in the sample as a whole. Active and inactive are the calls of the source. Rule for the calls: active = growth percent below 10; inactive = the rest.
Thanks in advance; please answer with one of these: active, inactive

Task item: Which outcome did this test record for the compound C[S+]1C=Cc2ccccc2C1c1ccc(Cl)cc1 (centres undefined) ?
Reply: inactive

Task item: Which outcome did this test record for the compound O=C(CC1(O)C(=O)Nc2ccccc21)c1ccc(C(=O)NCC2CCC3(CC2)OOC2(CCCCC2)OO3)cc1 (centres undefined) ?
Reply: inactive

Task item: Which outcome did this test record for the compound CNC12C3C4C1C1C2C3C41C(=O)N[C@H](C(=O)N(C)[C@H](C[C@@H](OC(C)=O)c1nc(C(=O)N[C@@H](Cc2ccccc2)C[C@H](C)C(=O)OC)cs1)C(C)C)C1CC1 (some centres undefined) ?
Reply: inactive

Task item: Which outcome did this test record for the compound N#CC1C(C#N)C2CCC1C1C2N1c1ccccc1 (centres undefined) ?
Reply: inactive

Task item: Which outcome did this test record for the compound COC(=O)CCc1c[nH]c2ccc(N(CCCl)CCCl)cc12 ?
Reply: inactive
